Where these numbers come from: patent US20130216547A1

# testSystem: T1, human big-endothelin-1 (big-ET-1) (human)
# T1 construct: 38 amino acid peptide; also called human big-ET-1; hBig-ET-1
# T1 peptide: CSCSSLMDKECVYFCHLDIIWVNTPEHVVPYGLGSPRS
# experimentalProtocol: SPR (Biacore T200), 37 C, mAb capture, peptide analyte
readoutType: koff (s⁻¹)
// return numeric value only (unit: s⁻¹, not printed)

Req: Supply recorded koff for H4H6330P (antibody, V domains shown, Human IgG4 Fc (prefix H4H)) VH: EVQLVESGGGLVQPGGSLRLSCAASGFTFSNYAMSWVRQAPGKGLEWVSAVSGSGVGTYYADSVKGRFTISRDNSKNTLYLQMKSLSAEDTALYYCTKTLGGTHAFDIWGQGTMVTVSS VL: DIQMTQSPSTLSASVGDRVTITCRASQSISRWLAWYQQKPGKAPKLLIYKASSLESGVPSRFSGSGSGTEFTVTINSLQPDDFATYYCQQYNSYSSFGQGTKLEIK here.
Resp: 0.0324
